Molecular target: human mGluR4 (hmGluR4) (Homo sapiens, UniProt Q14833)
Sequence (Q14833 33-912): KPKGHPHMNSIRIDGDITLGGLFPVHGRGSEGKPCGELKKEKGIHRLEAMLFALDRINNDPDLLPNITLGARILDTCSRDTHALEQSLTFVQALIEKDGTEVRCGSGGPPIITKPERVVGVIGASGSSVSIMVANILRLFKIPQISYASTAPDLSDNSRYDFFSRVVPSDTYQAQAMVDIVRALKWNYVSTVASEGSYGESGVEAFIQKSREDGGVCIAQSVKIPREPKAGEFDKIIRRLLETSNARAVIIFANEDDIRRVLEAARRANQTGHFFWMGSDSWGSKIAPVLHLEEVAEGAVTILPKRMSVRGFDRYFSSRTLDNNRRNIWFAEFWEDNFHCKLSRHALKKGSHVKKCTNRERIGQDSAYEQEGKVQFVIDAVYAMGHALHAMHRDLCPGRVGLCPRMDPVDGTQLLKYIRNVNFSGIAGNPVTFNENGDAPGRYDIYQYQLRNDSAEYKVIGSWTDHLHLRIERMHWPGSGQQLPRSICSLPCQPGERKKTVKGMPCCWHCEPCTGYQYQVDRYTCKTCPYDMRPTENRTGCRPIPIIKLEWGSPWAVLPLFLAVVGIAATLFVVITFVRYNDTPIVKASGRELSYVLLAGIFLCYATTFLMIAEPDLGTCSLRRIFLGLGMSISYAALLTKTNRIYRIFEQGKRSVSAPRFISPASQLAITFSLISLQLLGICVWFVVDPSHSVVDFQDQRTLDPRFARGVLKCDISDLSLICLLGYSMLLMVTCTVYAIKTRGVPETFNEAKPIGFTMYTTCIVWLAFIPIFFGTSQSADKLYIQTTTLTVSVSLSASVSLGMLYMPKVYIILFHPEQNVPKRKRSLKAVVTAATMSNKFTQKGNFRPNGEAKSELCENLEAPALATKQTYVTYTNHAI
Test: Calcium assay EC50 determination, positive allosteric modulator activity on hmGluR4 transiently over-expressed in HEK-293 cells
Details: PAM mode with EC20 glutamate; hmGluR4 in HEK-293 cells; intracellular calcium (Fluo4AM); read-out: mGluR4 positive allosteric modulator activity, half maximal effective concentration (EC50)
Where a name gives a salt, the structure may show the parent alone.
MEASURED PARAMETER: EC50

COMPOUND	EC50
Cc1cc(CCN2CCOCC2)cc2c(=O)[nH]c(-c3cc4sccc4cn3)nc12.Cl [Compound 123, hydrochloride]	≤ 100 nM

Please go through the list and note EC50 for each compound.
1. Cc1cccc(-c2nc3ccc(OCCCc4ccncc4)cc3c(=O)[nH]2)n1 [Compound 12, dihydrochloride]
2. COCCOc1ccc2nc(-c3cc4cccn4cn3)[nH]c(=O)c2c1
3. Cl.O=c1[nH]c(-c2cc3sccc3cn2)nc2ccc(OCCCc3cccnc3)cc12 [Compound 37, hydrochloride]
4. Cc1cc(CCN2CCN(C)C(=O)C2)cc2c(=O)[nH]c(-c3cc(C(F)(F)F)ccn3)nc12.Cl [Compound 144, hydrochloride]
5. Cc1cc(OC2CCC(=O)N(C)C2)cc2c(=O)[nH]c(-c3cc(C(F)(F)F)ccn3)nc12 (stereo not shown)
6. Cc1cc(OCCN2CCC3(CC2)COC3)cc2c(=O)[nH]c(-c3cc4ccsc4cn3)nc12

## Output
1. 100 to 1000 nM
2. > 10000 nM
3. 100 to 1000 nM
4. 100 to 1000 nM
5. ≤ 100 nM
6. 100 to 1000 nM
